tested on: pancreatic cancer (8 cell lines); experiment: CellTiter-Glo Viability Assay, pancreatic cancer; format: cell-based; conditions: Homo sapiens, BXPC-3, read-out: Pancreatic cancer, EC50 BxPC3
VALUE TYPE: pEC50
Numbers only, as −log10 of the molar value.

[
  {
    "SMILES": "CN1CCN(c2cc(C(=O)Nc3cc4cc(-c5cnn(C)c5)ccc4cn3)ccn2)CC1",
    "ASSAY TARGET": "pancreatic cancer (8 cell lines)",
    "VALUE TYPE": "pEC50",
    "ASSAY RESULT": 6.38
  },
  {
    "SMILES": "CN1CCC(N(C)c2cc(C(=O)Nc3cc4cc(-c5cnn(C)c5)ccc4cn3)ccn2)CC1",
    "ASSAY TARGET": "pancreatic cancer (8 cell lines)",
    "VALUE TYPE": "pEC50",
    "ASSAY RESULT": 6.51
  }
]

Please look at the following molecule next.
Name the reported pEC50 value associated with the molecule CN1CCN(C(=O)C(C)(C)c2ccc(C(=O)Nc3cn4cc(-c5ccncc5)ccc4n3)cc2)CC1
5.34

* * *

Could you please report measured log10(EC50) for the items listed next?
tested on: MCF7; test: CellTiter-Glo Viability Assay, breast cancer; type: cell-based; settings: Homo sapiens, 96 h; MCF7, breast cancer, four days; read-out: EC50
All values: log10 EC50 [nM].

Look over these answered cases.
[
  {
    "COMPOUND": "CN(C)C1CCN(c2cc(C(=O)Nc3ncc4ccc(-c5cn(C)nn5)cc4n3)ccn2)CC1 [Compound 80]",
    "ASSAY TARGET": "MCF7",
    "log10(EC50)": 3.82
  },
  {
    "COMPOUND": "CC(C)Nc1cncc(-c2ccc3cnc(NC(=O)c4cn(C5CCN(CCF)CC5)nn4)cc3c2)n1 [Compound 85]",
    "ASSAY TARGET": "MCF7",
    "log10(EC50)": 2.83
  },
  {
    "COMPOUND": "[2H]c1c([2H])c([2H])c(/C=C/C(=O)Nc2cc3cc(-c4cncn4C)ccc3cn2)c([2H])c1[2H] [Compound 81]",
    "ASSAY TARGET": "MCF7",
    "log10(EC50)": 2.70
  },
  {
    "COMPOUND": "Cn1cc(-c2ccc3cnc(NC(=O)c4ccc5c(c4)CNCC5)cc3c2)cn1 [Compound 74]",
    "ASSAY TARGET": "MCF7",
    "log10(EC50)": 3.28
  },
  {
    "COMPOUND": "CS(=O)(=O)NCc1cc(F)cc(-c2nccc3[nH]c(-c4n[nH]c5ccc(-c6cncc(NC(=O)C7CCC7)c6)cc45)cc23)c1 [Compound 53]",
    "ASSAY TARGET": "MCF7",
    "log10(EC50)": 3.81
  }
]

// next item, log10(EC50) requested
Please give the measured log10(EC50) for this compound: Cc1n[nH]c2ccc(-c3cncc(N[C@H]4CC[C@H](O)CC4)n3)cc12 [Compound 65]
3.00

* * *

Would you kindly list log10 EC50 for each of these compounds?
test system: colorectal cancer (6 cell lines); assay: CellTiter-Glo Viability Assay, colorectal cancer; format: cell-based; conditions: Homo sapiens, HT-29; HT29 cell line; inhibition of cancer cell proliferation; read-out: Colorectal cancer, EC50 (μM) HT29
A value of 2 here means EC50 of 100 in µM, since values are log10.

Record excerpt, results attached:
[
  {
    "COMPOUND": "CN(C)C1CCN(c2cc(C(=O)Nc3ncc4ccc(-c5cn(C)nn5)cc4n3)ccn2)CC1 [Compound 80]",
    "ASSAY TARGET": "colorectal cancer (6 cell lines)",
    "log10 EC50": 0.79
  },
  {
    "COMPOUND": "CN1CCC(C(=O)Nc2c[nH]nc2-c2nc3c(-c4ccc(F)s4)cccc3[nH]2)CC1 [Compound 90]",
    "ASSAY TARGET": "colorectal cancer (6 cell lines)",
    "log10 EC50": -0.77
  },
  {
    "COMPOUND": "CN1CC=C(c2cc(C(=O)Nc3cc4cc(-c5cncc(NC(C)(C)C)n5)cnc4cn3)ccn2)CC1 [Compound 86]",
    "ASSAY TARGET": "colorectal cancer (6 cell lines)",
    "log10 EC50": 0.07
  }
]

Quick request: log10 EC50 for each listed item, please.
1. CN1CCN(c2cc(C(=O)Nc3cc4cc(-c5nnc(N(C)C)s5)ccc4cn3)ccn2)CC1 [Compound 84]
2. CN(C)Cc1cncc(-c2cnc3[nH]nc(-c4nc5c(-c6cc(F)cc(N7CCOCC7)c6)cncc5[nH]4)c3c2)c1 [Compound 46]
3. Cc1n[nH]c2cc(F)c(-c3cncc(CN4CCNCC4)c3)cc12 [Compound 63]

1: 0.05; 2: 0.95; 3: 0.79

Give me log10 EC50 for each of these compounds, listed below.
1. c1cncc(-c2ccc3[nH]nc(-c4cc5c(-c6cccnc6)cncc5[nH]4)c3c2)c1 [Compound 48]
2. O=C(Nc1cncc(-c2ccc3[nH]nc(-c4cc5cnccc5[nH]4)c3c2)c1)C1CCCCC1 [Compound 47]

1: 0.19; 2: 0.16

* * *

Please provide measured EC50 for the entries that follow.
tested on: colorectal cancer (6 cell lines); experiment: CellTiter-Glo Viability Assay, colorectal cancer; type: cell-based; conditions: Homo sapiens, HCT-116, read-out: Colorectal cancer, EC50 (μM) HCT116
Numbers only, in µM.

Solved cases below.
[
  {
    "COMPOUND": "CN1CCN(C(=O)C(C)(C)c2ccc(C(=O)Nc3cn4cc(-c5ccncc5)ccc4n3)cc2)CC1 [Compound 27]",
    "EC50 [µM]": 1.08
  },
  {
    "COMPOUND": "CN1CCN(c2cc(C(=O)Nc3cc4cc(-c5cnn(C)c5)ccc4cn3)ccn2)CC1 [Compound 12]",
    "EC50 [µM]": 0.138
  }
]

Endpoint output: EC50 of CN1CCC(N(C)c2cc(C(=O)Nc3cc4cc(-c5cnn(C)c5)ccc4cn3)ccn2)CC1 [Compound 72] . Value?
0.103

* * *

Please respond with reported EC50 for every item in the list.
system: haematopoietic & lymphoid tumors (13 cell lines); experiment: CellTiter-Glo Viability Assay, haematopoietic & lymphoid tumors; format: cell-based; conditions: Homo sapiens; TOLEDO cell line; inhibition of cancer cell proliferation; read-out: Haematopoietic & Lymphoid tumors, EC50 (μM) TOLEDO
One number for each entry, in µM.

[
  {
    "SMILES": "CS(=O)(=O)NCc1cc(F)cc(-c2nccc3[nH]c(-c4n[nH]c5ccc(-c6cncc(NC(=O)C7CCC7)c6)cc45)cc23)c1",
    "ASSAY TARGET": "haematopoietic & lymphoid tumors (13 cell lines)",
    "EC50 / µM": 0.249
  },
  {
    "SMILES": "O=C(Nc1c[nH]nc1-c1nc2c(-c3cccc(F)c3)cncc2[nH]1)c1cccnc1",
    "ASSAY TARGET": "haematopoietic & lymphoid tumors (13 cell lines)",
    "EC50 / µM": 0.019
  },
  {
    "SMILES": "CN1CC=C(c2cc(C(=O)Nc3cc4cc(-c5cncc(NC(C)(C)C)n5)cnc4cn3)ccn2)CC1",
    "ASSAY TARGET": "haematopoietic & lymphoid tumors (13 cell lines)",
    "EC50 / µM": 0.811
  },
  {
    "SMILES": "[2H]c1c([2H])c([2H])c(/C=C/C(=O)Nc2cc3cc(-c4cncn4C)ccc3cn2)c([2H])c1[2H]",
    "ASSAY TARGET": "haematopoietic & lymphoid tumors (13 cell lines)",
    "EC50 / µM": 0.13
  },
  {
    "SMILES": "CN(C)Cc1cncc(-c2ccc3[nH]nc(-c4cc5c(-c6ccoc6)ccnc5[nH]4)c3c2)c1",
    "ASSAY TARGET": "haematopoietic & lymphoid tumors (13 cell lines)",
    "EC50 / µM": 0.302
  },
  {
    "SMILES": "Cc1cc2ncc(-c3ccc4cnc(NC(=O)c5ccnc(N6CCN(C)CC6)c5)cc4c3)cc2[nH]1",
    "ASSAY TARGET": "haematopoietic & lymphoid tumors (13 cell lines)",
    "EC50 / µM": 0.337
  }
]

Now look at this one.
What EC50 value was documented for this compound, CN(C)C1CCN(c2cc(C(=O)Nc3ncc4ccc(-c5cn(C)nn5)cc4n3)ccn2)CC1 ?
2.8

* * *

Please provide measured EC50 for the entries that follow.
tested on: pancreatic cancer (8 cell lines); experiment: CellTiter-Glo Viability Assay, pancreatic cancer; format: cell-based; conditions: Homo sapiens, Capan-2; Capan2 cell line; inhibition of cancer cell proliferation; read-out: Pancreatic cancer, EC50 Capan2
Give bare numbers, in nM.

Consider the worked cases shown below.
[
  {
    "SMILES": "[2H]c1c([2H])c([2H])c(/C=C/C(=O)Nc2cc3cc(-c4cncn4C)ccc3cn2)c([2H])c1[2H]",
    "UNIT TEXT": "nM",
    "ASSAY RESULT": 620
  },
  {
    "SMILES": "CN1CCC(Sc2ccc3cnc(NC(=O)c4ccnc(SC5CCN(C)CC5)c4)cc3c2)CC1",
    "UNIT TEXT": "nM",
    "ASSAY RESULT": 937
  },
  {
    "SMILES": "CN(C)C1CCN(c2cc(C(=O)Nc3ncc4ccc(-c5cn(C)nn5)cc4n3)ccn2)CC1",
    "UNIT TEXT": "nM",
    "ASSAY RESULT": 7500
  }
]

Kindly review the next compound as well.
Would you mind telling me what EC50 value was observed for CN1CCN(c2cc(C(=O)Nc3cc4cc(-c5cnn(C)c5N)ccc4cn3)ccn2)CC1 ?
289
